Test system: 966289-007-R4-J1-PDC complex spheroid viability;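 further: spheroids exposed to the agents for seven days before readout; percent viability relative to DMSO vehicle control wells taken as 100%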
Test: Anticancer human tumor 966289-007-R4-J1-PDC patient-derived pancreatic adenocarcinoma cell line growth inhibition [GQUAD]; active means viability on the fitted dose curve at most 10% of control; inactive means the rest
Settings: second compound 0.1 µM; first compound 0.1 µM
Source text: DNA G-quadruplex Stabilizer Agents in Combinations in Complex Spheroids A high-throughput screen of multi-cell type tumor spheroids was designed to identify active combinations of DNA G-quadruplex stabilizer agents and targeted small molecules. […] Compounds. […] If the clinical Cmax for an agent had not been determined, the highest concentration tested was 10 microM. […]
Respond with a class label; see true (1) (active), false (0) (inactive)

Exercise: Each compound tested received a call. Report the one for Cc1cccc(N(C)C(=O)C2C(O)CCN2c2nc(C)cc(C(F)(F)F)c2C#N)c1 (stereo not given) + Cc1cnc(CNC(=O)c2c(=O)c3ccc(N4CCCN(C)CC4)nc3n3c2sc2ccccc23)cn1 .
Key: false (0)
